Source: the supplement of paper PMC12632987

molecular target: GABARAP, O95166; experiment: median log2 fold change of GCK-ALFA target abundance (FLAG IP / Myc IP barcode read proportion) (log2 ratio); each designed protein is fused to an ALFA-tag nanobody in HEK293 cells to bring the named protein to FLAG-tagged glucokinase (GCK); Myc marks an untargeted standard; higher = target protein stabilised (more abundant); settings: target protein: 3xFLAG-MCP-GCK-ALFA reporter; HEK293 landing pad (RPLP)
Sequence (O95166 whole entry, the tested form may be a part): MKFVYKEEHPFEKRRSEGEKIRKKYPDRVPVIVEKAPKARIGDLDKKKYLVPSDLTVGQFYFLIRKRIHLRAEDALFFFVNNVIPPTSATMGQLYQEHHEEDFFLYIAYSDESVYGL
In all, about 4,500 sequences were measured (“median log2 fold change of GCK-ALFA target abundance (FLAG IP / Myc IP barcode read proportion)”: median about 0.078, lowest 2% from about -0.6 on). The sample as a whole holds a higher share of the lowest values than the screen did.
This section presents binders with their documented median log2 fold change values.
Enter a number only.

Use these answered entries as a reference point.
* GBRAP_11_2732 (protein) KKEKLEEIRELAERLAELLQRLIEEGPEDEELRREAEEQLRKLEELVKEYGDEDLKKLVEIIREEWERAQEDPETAVEHLRNALAAARVLAGQVLLEIEE | 0.303
* GBRAP_160_4038 (protein) NEKLEKLAKFAEEVFKEAEELIKGTTVEEAAVIVDVATGEIIMEAVELGIDNDELEDFIDEIGDEAVAYLLAHPDLTEEEIQALVKEAKEKILKKIKEAS | -0.621
* GBRAP_11_2679 (protein) KKEQLKKIAEIAKELAEAIEKLLKEGVDNEKLLKEIKKLLKELKELAEKYADEGLKTLAEIAAELFEEALANPENAEHYLELLLAAVRVLLANVEEEIDE | -0.169
* GBRAP_35_5545 (protein) DFDEETVEMLLNTMEDIVLALPDVSPEEKLILARHLIDLAEKAIEEKPKNVELLKRGIEVLERAIEIVKASDLPEEEREELIERLEEVKEKFEKLLKENE | 0.127
* GBRAP_26_5460 (protein) MEEAERAAEAEVRAIAARLPDPRVAAAVVAEFSTELLEAEEAIENGEDPKEAFRKAREEFLAEARELMEEAGLSPEEIAAFEAELSAVFDKLEAEVLAEL | 0.197

// switching to the query binder
The recorded median log2 fold change for entry GBRAP_128_3267 (protein) MNPEVVAYAEAFVEKLKAAGPEEAKKLADELMEKLKTMSLEEVEQFVEVLEKKLKELSVEKLEILADAARKHRDEFSPEKANLVAGLEVEALNEAVEKEE equals 0.119
